# TEST_TARGET: Mu-type opioid receptor (Homo sapiens, UniProt P35372)
# Sequence (P35372 whole entry): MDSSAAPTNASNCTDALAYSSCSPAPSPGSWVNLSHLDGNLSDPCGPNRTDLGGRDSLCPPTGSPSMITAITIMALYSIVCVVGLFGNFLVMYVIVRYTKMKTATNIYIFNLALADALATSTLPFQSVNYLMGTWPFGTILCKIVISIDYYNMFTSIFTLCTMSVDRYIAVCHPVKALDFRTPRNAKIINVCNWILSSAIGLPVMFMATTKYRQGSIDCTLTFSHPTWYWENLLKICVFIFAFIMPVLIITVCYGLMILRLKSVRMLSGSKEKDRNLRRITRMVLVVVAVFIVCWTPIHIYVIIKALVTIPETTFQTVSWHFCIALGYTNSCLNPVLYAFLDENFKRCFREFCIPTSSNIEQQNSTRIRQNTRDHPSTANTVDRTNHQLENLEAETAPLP
# MEASUREMENT_PROTOCOL: Displacement of [3H]-DAMGO from human mu opiod receptor expressed in CHO cells at 1 uM incubated for 60 mins by liquid scintillation counting method relative to control
# Assay type: cell-based
METRIC: inhibition (%)

>>> recorded_result("Cc1cc(C)cc(C2CCCN2Cc2ccc(Oc3ccc4c(=O)[nH]oc4c3Cl)cc2)c1 (stereo not given)")
0
>>> recorded_result("Cc1cc(C)cc(C2CCCN2Cc2ccc(Oc3ccc4c(=O)[nH]oc4c3)c(Cl)c2)c1 (stereo not given)")
0
>>> recorded_result("Cc1cc(C)cc(C2CCCN2Cc2ccc(Oc3ccc4c(=O)[nH]oc4c3F)c(F)c2)c1 (stereo not given)")
9.4
>>> recorded_result("COc1cccc(C2CCCN2Cc2ccc(Oc3ccc(C(=O)NO)cc3)cc2)c1 (stereo not given)")
13.5
>>> recorded_result("O=c1[nH]oc2c(F)c(Oc3ccc(CN4CCCC4c4cccc(F)c4)cc3)ccc12 (stereo not given)")
0
>>> recorded_result("COc1ccc(C2CCCN2Cc2ccc(Oc3ccc4c(=O)[nH]oc4c3)cc2)cc1 (stereo not given)")
42.2
>>> recorded_result("COc1cccc(C2CCCN2Cc2ccc(Oc3ccc4c(=O)[nH]oc4c3F)cc2)c1 (stereo not given)")
0
>>> recorded_result("O=C(NO)c1ccc(Oc2ccc(CN3CCCC3c3cccc(F)c3)cc2)c(F)c1 (stereo not given)")
25.8
>>> recorded_result("Cc1cc(C)cc(C2CCCN2Cc2ccc(Oc3ccc4c(=O)[nH]oc4c3)c(F)c2)c1 (stereo not given)")
0
>>> recorded_result("O=c1[nH]oc2c(F)c(Oc3ccc(CN4CCCC4c4cccc(Cl)c4)cc3)ccc12 (stereo not given)")
0
>>> recorded_result("COc1cccc(C2CCCN2Cc2ccc(Oc3ccc(C(=O)NO)cc3F)cc2)c1 (stereo not given)")
22.6
>>> recorded_result("O=C(NO)c1ccc(Oc2ccc(CN3CCCC3c3ccc(Cl)cc3)cc2)c(F)c1 (stereo not given)")
0
>>> recorded_result("Cc1cc(C)cc(C2CCCN2Cc2ccc(Oc3ccc4c(=O)[nH]oc4c3F)cc2)c1 (stereo not given)")
0
>>> recorded_result("O=c1[nH]oc2c(Cl)c(Oc3ccc(CN4CCCC4c4cccc(F)c4)cc3)ccc12 (stereo not given)")
0
>>> recorded_result("O=c1[nH]oc2cc(Oc3ccc(CN4CCCC4c4ccc(Cl)cc4)cc3)ccc12 (stereo not given)")
47
>>> recorded_result("COc1ccc(C2CCCN2Cc2ccc(Oc3ccc4c(=O)[nH]oc4c3F)cc2)cc1 (stereo not given)")
19.2
>>> recorded_result("O=c1[nH]oc2c(Cl)c(Oc3ccc(CN4CCCC4c4cccc(Cl)c4)cc3)ccc12 (stereo not given)")
19.2
>>> recorded_result("COc1ccc(C2CCCN2Cc2ccc(Oc3ccc4c(=O)[nH]oc4c3Cl)cc2)cc1 (stereo not given)")
17.7
>>> recorded_result("O=c1[nH]oc2c(Cl)c(Oc3ccc(CN4CCCC4c4ccc(Cl)cc4)cc3)ccc12 (stereo not given)")
21.7
>>> recorded_result("COc1ccc(C2CCCN2Cc2ccc(Oc3ccc(C(=O)NO)cc3)cc2)cc1 (stereo not given)")
12.8
>>> recorded_result("COc1cc(CN2CCCC2c2cc(C)cc(C)c2)ccc1Oc1ccc2c(=O)[nH]oc2c1 (stereo not given)")
14.3
>>> recorded_result("O=C(NO)c1ccc(Oc2ccc(CN3CCCC3c3ccccc3)cc2)cc1 (stereo not given)")
21.9
>>> recorded_result("COc1cccc(C2CCCN2Cc2ccc(Oc3ccc4c(=O)[nH]oc4c3Cl)cc2)c1 (stereo not given)")
0
>>> recorded_result("O=c1[nH]oc2c(F)c(Oc3ccc(CN4CCCC4c4ccc(Cl)cc4)cc3)ccc12 (stereo not given)")
22.5
>>> recorded_result("COc1ccc(C2CCCN2Cc2ccc(Oc3ccc(C(=O)NO)cc3F)cc2)cc1 (stereo not given)")
11
>>> recorded_result("Cc1cc(C)cc(C2CCCN2Cc2ccc(Oc3ccc(C(N)=O)cc3F)cc2)c1 (racemic)")
52.7
>>> recorded_result("Cc1cc(C)cc(C2CCCN2Cc2ccc(Oc3ccc(C(=O)NO)cc3)cc2)c1 (stereo not given)")
10.7
>>> recorded_result("Cc1cc(C)cc(C2CCCN2Cc2ccc(Oc3ccc4c(=O)[nH]oc4c3)cc2)c1 (stereo not given)")
49.4
>>> recorded_result("Cc1cc(C)cc(C2CCCN2Cc2ccc(Oc3ccc4c(=O)[nH]oc4c3F)c(Cl)c2)c1 (stereo not given)")
21.4
>>> recorded_result("O=C(NO)c1ccc(Oc2ccc(CN3CCCC3c3cccc(Cl)c3)cc2)c(F)c1 (stereo not given)")
16.5

* * *

This listing pairs compounds with measured inhibition.
# TEST_TARGET: Delta-type opioid receptor (Homo sapiens)
# MEASUREMENT_PROTOCOL: Displacement of [3H]-DPDPE from human delta opiod receptor expressed in human HEK293 cells at 1 uM incubated for 60 mins by liquid scintillation counting method relative to control
# Assay type: cell-based
METRIC: inhibition

>>> recorded_result("Cc1cc(C)cc(C2CCCN2Cc2ccc(Oc3ccc(C(N)=O)cc3F)cc2)c1 (racemic)")
"49.5%"
>>> recorded_result("O=c1[nH]oc2c(Cl)c(Oc3ccc(CN4CCCC4c4cccc(Cl)c4)cc3)ccc12 (centres undefined)")
"0%"
>>> recorded_result("COc1cccc(C2CCCN2Cc2ccc(Oc3ccc4c(=O)[nH]oc4c3Cl)cc2)c1 (centres undefined)")
"19.7%"
>>> recorded_result("O=c1[nH]oc2c(Cl)c(Oc3ccc(CN4CCCC4c4ccc(Cl)cc4)cc3)ccc12 (centres undefined)")
"23.9%"
>>> recorded_result("Cc1cc(C)cc(C2CCCN2Cc2ccc(Oc3ccc(C(=O)NO)cc3)cc2)c1 (centres undefined)")
"0%"
>>> recorded_result("O=C(NO)c1ccc(Oc2ccc(CN3CCCC3c3ccccc3)cc2)cc1 (centres undefined)")
"0%"
>>> recorded_result("Cc1cc(C)cc(C2CCCN2Cc2ccc(Oc3ccc4c(=O)[nH]oc4c3)cc2)c1 (centres undefined)")
"33.9%"
>>> recorded_result("Cc1cc(C)cc(C2CCCN2Cc2ccc(Oc3ccc4c(=O)[nH]oc4c3)c(Cl)c2)c1 (centres undefined)")
"0%"
>>> recorded_result("Cc1cc(C)cc(C2CCCN2Cc2ccc(Oc3ccc4c(=O)[nH]oc4c3F)cc2)c1 (centres undefined)")
"0%"

* * *

# TEST_TARGET: Mu-type opioid receptor (Homo sapiens)
# MEASUREMENT_PROTOCOL: Displacement of [3H]-DAMGO from human mu opiod receptor expressed in CHO cells at 10 uM incubated for 60 mins by liquid scintillation counting method relative to control
# Assay type: cell-based
This listing pairs compounds with measured inhibition.
METRIC: inhibition (%)

>>> recorded_result("COc1ccc(C2CCCN2Cc2ccc(Oc3ccc4c(=O)[nH]oc4c3)cc2)cc1 (stereo not drawn)")
50.6
>>> recorded_result("O=C(NO)c1ccc(Oc2ccc(CN3CCCC3c3cccc(Cl)c3)cc2)c(F)c1 (stereo not drawn)")
57.3
>>> recorded_result("Cc1cc(C)cc(C2CCCN2Cc2ccc(Oc3ccc4c(=O)[nH]oc4c3Cl)cc2)c1 (stereo not drawn)")
0

* * *

# TEST_TARGET: Delta-type opioid receptor (Homo sapiens, UniProt P41143)
# Sequence (P41143 whole entry): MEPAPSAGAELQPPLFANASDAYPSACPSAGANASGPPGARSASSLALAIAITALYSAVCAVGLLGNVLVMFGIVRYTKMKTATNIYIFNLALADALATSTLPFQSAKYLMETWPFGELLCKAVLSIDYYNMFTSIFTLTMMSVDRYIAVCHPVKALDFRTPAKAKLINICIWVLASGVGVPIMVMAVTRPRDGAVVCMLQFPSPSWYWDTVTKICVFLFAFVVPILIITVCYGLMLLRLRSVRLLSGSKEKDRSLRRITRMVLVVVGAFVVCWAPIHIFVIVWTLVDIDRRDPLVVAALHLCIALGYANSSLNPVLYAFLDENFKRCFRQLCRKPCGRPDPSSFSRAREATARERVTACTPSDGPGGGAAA
# MEASUREMENT_PROTOCOL: Displacement of [3H]-DPDPE from human delta opiod receptor expressed in human HEK293 cells at 10 uM incubated for 60 mins by liquid scintillation counting method relative to control
# Type: cell-based
Label yes (1) when inhibition is at or above 40%; anything below gets no (0).

>>> cat("O=c1[nH]oc2c(Cl)c(Oc3ccc(CN4CCCC4c4cccc(Cl)c4)cc3)ccc12 (centres undefined)")
"yes (1)"
>>> cat("O=c1[nH]oc2c(F)c(Oc3ccc(CN4CCCC4c4cccc(F)c4)cc3)ccc12 (centres undefined)")
"yes (1)"
>>> cat("O=C(NO)c1ccc(Oc2ccc(CN3CCCC3c3cccc(Cl)c3)cc2)c(F)c1 (centres undefined)")
"no (0)"
>>> cat("O=c1[nH]oc2c(F)c(Oc3ccc(CN4CCCC4c4ccc(Cl)cc4)cc3)ccc12 (centres undefined)")
"no (0)"
>>> cat("COc1cccc(C2CCCN2Cc2ccc(Oc3ccc(C(=O)NO)cc3)cc2)c1 (centres undefined)")
"no (0)"
>>> cat("O=c1[nH]oc2c(F)c(Oc3ccc(CN4CCCC4c4cccc(Cl)c4)cc3)ccc12 (centres undefined)")
"no (0)"
>>> cat("O=c1[nH]oc2c(Cl)c(Oc3ccc(CN4CCCC4c4ccc(Cl)cc4)cc3)ccc12 (centres undefined)")
"yes (1)"
>>> cat("O=c1[nH]oc2c(Cl)c(Oc3ccc(CN4CCCC4c4cccc(F)c4)cc3)ccc12 (centres undefined)")
"no (0)"
>>> cat("Cc1cc(C)cc(C2CCCN2Cc2ccc(Oc3ccc4c(=O)[nH]oc4c3Cl)cc2)c1 (centres undefined)")
"no (0)"
